Reference source: patent US6656971B2

Target: human recombinant CyPA (Homo sapiens, UniProt P62937)
Sequence (P62937 whole entry): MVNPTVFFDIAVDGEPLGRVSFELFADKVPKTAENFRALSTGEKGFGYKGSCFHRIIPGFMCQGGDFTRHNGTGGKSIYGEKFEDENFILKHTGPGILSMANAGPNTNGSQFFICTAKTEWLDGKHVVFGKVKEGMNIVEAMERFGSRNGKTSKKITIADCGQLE
Test: Semiautomated microtiter plate assay of rotamase activity inhibition, human recombinant CyPA
Assay type: biochemical
Details: Table B, value without asterisk: human recombinant CyPA
For each of the molecules below, state its pIC50.
One number for each entry, as −log10 of the molar value.

{"columns": ["record smiles", "result"],
 "data": [
  ["CC(C)(C)OC(=O)NCCCCCCNC(=O)c1cc(NC(=O)Nc2cc(Cl)cc(Cl)c2)cc(C(=O)Nc2cccc(C(F)(F)F)c2)c1", 6.08]
]}

For every item below, please supply its pIC50.
1. O=S(=O)(Nc1cc(COc2ccc(Cl)c(Cl)c2)cc(NS(=O)(=O)c2cccc3ccccc23)c1)c1cccc2ccccc12
2. O=S(=O)(c1cc(Cl)cc(Cl)c1)N(c1ccc(Br)c(N(S(=O)(=O)c2cc(Cl)cc(Cl)c2)S(=O)(=O)c2cc(Cl)cc(Cl)c2)c1)S(=O)(=O)c1cc(Cl)cc(Cl)c1
3. O=C(Nc1cccc(C(F)(F)F)c1)c1cc(Oc2ccc3ccccc3c2)cc(C(=O)Nc2cccc(C(F)(F)F)c2)c1

**Result**
1. 5.68
2. 5.00
3. 5.70

For every item below, please supply its pIC50.
1. O=C(CCCCc1ccccc1)Nc1cc(Br)cc(C(=O)NNC(=S)Nc2ccc(Cl)c(Cl)c2)c1
2. O=C(NCCc1ccc(Cl)c(Cl)c1)c1cc(COc2ccc(Cl)c(Cl)c2)cc(C(=O)NCCc2ccc(Cl)c(Cl)c2)c1

**Result**
1: 6.41; 2: 5.55

----------
For each of the molecules below, state its IC50.
Target: human recombinant CyPA (Homo sapiens, UniProt P62937)
Test: Semiautomated microtiter plate assay of rotamase activity inhibition, human recombinant CyPA
Type: biochemical
Settings: Table B, value without asterisk: human recombinant CyPA
Give bare numbers, in µM.

{"columns": ["record smiles", "target system", "result"],
 "data": [
  ["N#Cc1cccc(NC(=O)c2cc(OCc3ccc(-c4ccccc4C#N)cc3)cc(C(=O)Nc3cccc(C#N)c3)c2)c1", "human recombinant CyPA (Homo sapiens, UniProt P62937)", 4.71],
  ["O=C(Nc1cc(CN2C(=O)c3ccccc3C2=O)cc(NC(=O)c2cccc(C(F)(F)F)c2)c1)c1cccc(C(F)(F)F)c1", "human recombinant CyPA (Homo sapiens, UniProt P62937)", 7.71]
]}

Kindly consider the entry below.
Record summary for COC(=O)CCc1cc(NC(=O)Nc2cc(Cl)cc(Cl)c2)cc(NC(=O)Nc2cc(Cl)cc(Cl)c2)c1 : reported IC50 = 2.94

----------
Biological target: human recombinant CyPA (Homo sapiens, UniProt P62937)
Test: Rotamase (PPIase) inhibition, chymotrypsin-coupled cuvette assay, human recombinant CyPA
Assay type: biochemical
Settings: Table A, value without asterisk: human recombinant CyPA
pIC50: −log10 of the molar value.
Rule: 1 for pIC50 not less than 6, -1 for anything less.

{"columns": ["compound", "label"],
 "data": [
  ["O=C(Nc1cc(Cl)cc(Cl)c1)c1cc(COc2ccc(Cl)c(Cl)c2)cc(C(=O)Nc2cc(Cl)cc(Cl)c2)c1 [Compound 20]", 1],
  ["Nc1cc(CN2C(=O)c3ccccc3C2=O)cc(NC(=S)Nc2cc(Cl)cc(Cl)c2)c1 [Compound 31]", -1]
]}

**Query** Please tell me: is the compound O=C(Nc1cccc(C(F)(F)F)c1)c1cc(/C=C/c2ccc3ccccc3c2)cc(C(=O)Nc2cccc(C(F)(F)F)c2)c1 [Compound 25] at or over 6 in terms of pIC50?
**Result** 1

**Query** Please tell me: is the compound S=C(Nc1cc(Cl)cc(Cl)c1)Nc1cc(NC(=S)Nc2cc(Cl)cc(Cl)c2)cc(Nc2ccccn2)c1 [Compound 13] at or over 6 in terms of pIC50?
**Result** 1

**Query** Please tell me: is the compound O=C(NNC(=O)c1cc(O)cc(NC(=O)c2cccc(C(F)(F)F)c2)c1)c1ccccc1 [Compound 15] at or over 6 in terms of pIC50?
**Result** -1

**Query** Please tell me: is the compound O=C(Nc1cc(Cl)c(Cl)c(Cl)c1)c1cc(OCc2ccc(Cl)c(Cl)c2)cc(C(=O)Nc2cc(Cl)c(Cl)c(Cl)c2)c1 [Compound 32] at or over 6 in terms of pIC50?
**Result** 1

**Query** Please tell me: is the compound O=C(Nc1cc(OCc2cccc3ccccc23)ccc1Br)c1cccc(C(F)(F)F)c1 [Compound 34] at or over 6 in terms of pIC50?
**Result** -1

**Query** Please tell me: is the compound N#Cc1ccccc1-c1ccc(COc2cc(C(=O)NCCc3ccc(Cl)c(Cl)c3)cc(C(=O)NCCc3ccc(Cl)c(Cl)c3)c2)cc1 [Compound 21] at or over 6 in terms of pIC50?
**Result** 1
